From: patent US12421225B2

target: human Nav1.5 (Homo sapiens (Human), UniProt Q14524)
Sequence (Q14524 whole entry): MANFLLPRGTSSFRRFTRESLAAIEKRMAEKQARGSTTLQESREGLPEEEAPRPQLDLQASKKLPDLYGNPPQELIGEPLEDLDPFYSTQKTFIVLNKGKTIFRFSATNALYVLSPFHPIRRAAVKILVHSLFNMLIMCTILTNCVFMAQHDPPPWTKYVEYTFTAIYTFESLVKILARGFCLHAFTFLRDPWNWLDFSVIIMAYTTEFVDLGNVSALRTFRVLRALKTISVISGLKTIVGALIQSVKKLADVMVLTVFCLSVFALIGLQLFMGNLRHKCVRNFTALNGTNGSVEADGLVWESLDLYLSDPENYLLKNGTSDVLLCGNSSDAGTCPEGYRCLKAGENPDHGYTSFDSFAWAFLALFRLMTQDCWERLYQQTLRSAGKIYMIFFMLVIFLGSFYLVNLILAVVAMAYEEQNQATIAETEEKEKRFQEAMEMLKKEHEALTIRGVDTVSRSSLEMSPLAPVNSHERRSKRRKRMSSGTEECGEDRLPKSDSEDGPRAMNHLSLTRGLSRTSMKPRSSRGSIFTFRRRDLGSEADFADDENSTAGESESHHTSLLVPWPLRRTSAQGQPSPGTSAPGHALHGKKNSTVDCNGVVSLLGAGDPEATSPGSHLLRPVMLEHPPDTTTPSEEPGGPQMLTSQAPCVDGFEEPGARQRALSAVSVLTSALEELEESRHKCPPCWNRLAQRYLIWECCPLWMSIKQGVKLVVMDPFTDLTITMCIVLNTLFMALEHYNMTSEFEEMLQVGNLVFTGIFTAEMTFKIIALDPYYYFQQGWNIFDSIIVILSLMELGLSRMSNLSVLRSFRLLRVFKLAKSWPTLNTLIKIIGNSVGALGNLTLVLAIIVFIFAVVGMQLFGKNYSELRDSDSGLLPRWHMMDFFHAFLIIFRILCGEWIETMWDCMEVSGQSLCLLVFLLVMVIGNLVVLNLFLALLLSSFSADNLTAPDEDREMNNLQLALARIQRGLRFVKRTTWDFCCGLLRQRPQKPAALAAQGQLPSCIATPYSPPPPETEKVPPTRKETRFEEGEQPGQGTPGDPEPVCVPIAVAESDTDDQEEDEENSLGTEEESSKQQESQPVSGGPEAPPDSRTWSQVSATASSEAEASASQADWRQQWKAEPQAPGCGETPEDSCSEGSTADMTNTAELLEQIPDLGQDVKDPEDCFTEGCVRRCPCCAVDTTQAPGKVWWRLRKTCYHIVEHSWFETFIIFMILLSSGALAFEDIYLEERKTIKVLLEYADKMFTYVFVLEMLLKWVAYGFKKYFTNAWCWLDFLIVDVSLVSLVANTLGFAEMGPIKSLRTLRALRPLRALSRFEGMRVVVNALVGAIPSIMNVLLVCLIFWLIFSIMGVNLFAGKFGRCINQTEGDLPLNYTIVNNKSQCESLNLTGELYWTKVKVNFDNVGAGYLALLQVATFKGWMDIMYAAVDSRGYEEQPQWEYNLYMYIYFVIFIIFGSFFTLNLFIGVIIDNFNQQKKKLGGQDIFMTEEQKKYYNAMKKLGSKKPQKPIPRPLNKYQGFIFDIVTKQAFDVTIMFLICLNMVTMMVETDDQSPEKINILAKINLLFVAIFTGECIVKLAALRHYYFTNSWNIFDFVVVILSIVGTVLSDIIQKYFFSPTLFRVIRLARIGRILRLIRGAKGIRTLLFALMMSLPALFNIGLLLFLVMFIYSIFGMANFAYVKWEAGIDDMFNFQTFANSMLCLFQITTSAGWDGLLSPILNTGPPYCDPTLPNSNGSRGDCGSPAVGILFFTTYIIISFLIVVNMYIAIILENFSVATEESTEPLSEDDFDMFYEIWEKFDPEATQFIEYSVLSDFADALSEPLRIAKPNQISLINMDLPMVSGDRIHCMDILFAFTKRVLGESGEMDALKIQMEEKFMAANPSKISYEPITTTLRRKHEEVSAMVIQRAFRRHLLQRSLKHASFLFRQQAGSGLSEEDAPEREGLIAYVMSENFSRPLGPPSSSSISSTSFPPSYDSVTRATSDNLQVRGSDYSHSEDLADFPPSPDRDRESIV
testSummary: Human Nav1.5 inhibitory activity evaluation (automated patch clamp QPatch16X, HEK293 cells stably expressing human Nav1.5)
Type: cell-based
assaySetup: human Nav1.5, automated patch clamp
reportedEndpoint: IC50

Report IC50 for O=C(N[C@H]1COc2ccc(CC(F)F)cc2C1)c1cc2n(n1)CCC(CCOC(F)F)O2 (some centres unmarked) [Example 147] please. ≥ 3000 nM

Now this one: O=C(N[C@H]1COc2ccc(-c3cccnc3)cc2C1)c1cc2n(n1)CCN(c1ccc(F)cc1)C2 [Example 279] ≥ 3000 nM

Next entry: CC(C)(F)C1CCn2nc(C(=O)N[C@H]3COc4ccc(C#N)cc4C3)cc2O1 (some centres unmarked) [Example 540] 1000 to 3000 nM

Moving on to the next molecule: O=C(c1cn2c(n1)CCC(c1cccc(OC3COC3)n1)C2)N1CCC(c2ccccc2)C1 (centres unmarked) [Example 313] ≥ 3000 nM

Same again, this time with O=C(N[C@H]1COc2ccc(Cl)cc2C1)c1cc2n(n1)CCC(CNCC(F)(F)F)O2 (single isomer, unassigned) [152 (isomer B)] ≥ 3000 nM

Moving on to O=C(c1cn2c(n1)CCC(c1cccc(N3CCOCC3)n1)C2)N1CCC(c2ccccc2)C1 (centres unmarked) [Example 307] 1000 to 3000 nM

Lookup N#Cc1ccc2c(c1)C[C@@H](NC(=O)c1cc3n(n1)CCC(COCC(F)(F)C(F)(F)F)O3)CO2 (some centres unmarked) [Example 412] 1000 to 3000 nM

Try O=C(N[C@H]1COc2ccc(-c3cccnc3)cc2C1)c1cc2n(n1)CCC(C(F)(F)F)O2 (some centres unmarked) [Example 375] next. ≥ 3000 nM

Note, next up: O=C(N[C@H]1COc2ccc(-c3cnccn3)cc2C1)c1cc2n(n1)CC(CCOCC(F)(F)F)O2 (some centres unmarked) [Example 456] 1000 to 3000 nM

Now the molecule Cn1ccc(-c2c(C(=O)N[C@H]3COc4ccc(C(F)(F)F)cc4C3)nc3n2CCOC3)n1 [Example 345] 1000 to 3000 nM

Next record, please: N#Cc1ccc2c(c1)C[C@@H](NC(=O)c1cc3n(n1)CC(CCOC(F)(F)F)O3)CO2 (single isomer, unassigned) [209 (isomer B)] < 1000 nM

Consider next the molecule O=C(N[C@H]1COc2ccc(CC(F)F)cc2C1)c1cc2n(n1)CC(CCOCC(F)(F)F)O2 (some centres unmarked) [Example 466] in the same way. 1000 to 3000 nM

Entry N#Cc1ccc2c(c1)C[C@@H](NC(=O)c1cc3n(n1)CC(CCOC1CCC1)O3)CO2 (some centres unmarked) [Example 470] please 1000 to 3000 nM

Now the same for O=C(N[C@H]1COc2ccc(C(F)(F)F)cc2C1)c1nn2c(c1-c1ccccn1)COCC2 [Example 260] ≥ 3000 nM

What would you report for Cn1ccc(-c2ccc3c(c2)C[C@@H](NC(=O)c2cc4n(n2)CC(CCOCC2CC2)O4)CO3)n1 (some centres unmarked) [Example 461] ? 1000 to 3000 nM

What do we get for O=C(N[C@H]1COc2ccc(Cl)cc2C1)c1cc2n(n1)CCN(CC(C(F)(F)F)C(F)(F)F)C2 [Example 493] ? 1000 to 3000 nM

What do you have for N#Cc1ccc2c(c1)C[C@@H](NC(=O)c1cc3n(n1)CCN(c1ccc(F)cc1)C3)CO2 [Example 278] ? 1000 to 3000 nM

Record: O=C(N[C@H]1COc2ccc(C(F)(F)F)cc2C1O)c1cc2n(n1)CC(CCCOCC(F)F)O2 (single isomer, unassigned) [608 (isomer A)] ≥ 3000 nM

Same again, this time with Cn1ccc(-c2ccc3c(c2)C[C@@H](NC(=O)c2cc4n(n2)CC(CCSCC(F)(F)F)O4)CO3)n1 (some centres unmarked) [Example 457] ≥ 3000 nM

Also need O=C(N[C@H]1COc2ccc(CCOC(F)F)cc2C1)c1cc2n(n1)CCC(COC(F)F)O2 (some centres unmarked) [Example 141] , thanks. ≥ 3000 nM

Same lookup for N#Cc1ccc2c(c1)C[C@@H](NC(=O)c1cc3n(n1)CCC(c1ccccc1F)O3)CO2 (some centres unmarked) [Example 359] , please. ≥ 3000 nM

Field entry: O=C(N[C@H]1COc2ccc(C(F)(F)F)cc2C1)c1nc2n(c1-c1ccccn1)CCCC2 [Example 305] 1000 to 3000 nM

Would you kindly repeat that for O=C(N[C@H]1COc2ccc(COCC(F)(F)F)cc2C1)c1cc2n(n1)CC(CCOCC(F)F)O2 (single isomer, unassigned) [224 (isomer A)] ? ≥ 3000 nM

And what about the molecule O=C(N[C@H]1COc2ccc(C(F)(F)F)cc2C1O)c1cc2n(n1)CC(CCCOCC(F)(F)F)O2 (single isomer, unassigned) [603 (isomer B)] ? ≥ 3000 nM

How about O=C(NCCc1cccc(C(F)(F)F)c1)c1cn2c(n1)CNC(c1cccc(C(F)(F)F)n1)C2 (centres unmarked) [Example 324] ? ≥ 3000 nM

Next entry: O=C(N[C@H]1COc2ccc(CC(F)F)cc2C1)c1cc2n(n1)CC(CCOC(F)(F)F)O2 (single isomer, unassigned) [211 (isomer B)] < 1000 nM

Thanks! And CCc1ccc2c(c1)CC(NC(=O)c1cn3c(n1)CCC(C(F)(F)F)C3)CO2 (centres unmarked) [Example 295] ? ≥ 3000 nM

Also O=C(N[C@H]1COc2ccc(CC(F)F)cc2C1)c1cc2n(n1)CCC(COC1CCC1)O2 (some centres unmarked) [Example 437] ? 1000 to 3000 nM

Okay, and N#Cc1ccc2c(c1)C[C@@H](NC(=O)c1cc3n(n1)CCN(Cc1ccccc1C(F)(F)F)C3)CO2 [Example 499] ? 1000 to 3000 nM
